- measurementProtocol: compound effects on multiple myeloma cell viability – MM1S, calcein-AM fluorescence, 48 h, basal, profiling panel (AID 1165);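 further: viability of MM1S multiple myeloma cells under basal unstimulated conditions; test concentration not given here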
- statedConditions: higher = more signal
Consider the following molecules and their measured z-score readings.
Enter the number alone.

[
  {
    "molecule": "Cc1ccc(N2C(=O)c3ccccc3[C@](C)(C(=O)NC(C)C)[C@@H]2c2ccc(CO)cc2)nc1",
    "z-score": -1.03
  },
  {
    "molecule": "COC(=O)[C@@]1(Cc2ccc(OC)cc2)[C@H]2c3cc(C(=O)N(C)C)n(CCF)c3C[C@H]2CN1C(=O)c1ccccc1",
    "z-score": 0.841
  },
  {
    "molecule": "CC1CC/C=C\\[C@H]2OC34C=CCN(c5ccc(Cl)cc5)C(=O)[C@H]3N(C(CO)C(C)C)C(=O)[C@]4(C)C2C(=O)O1 (some centres undefined)",
    "z-score": 0.955
  }
]

Read the next record carefully.
Data request: Look up z-score of CN1C(=O)C2C=CC(C(O)C3CCCCC3)N(N(c3ccccc3)c3ccccc3)C2C1=O (centres undefined) and report it.
Data returned: 0.241

---

- measurementProtocol: binders of probe aHhip on microarray, primary screen, stem cell growth factor project, biochemical, small-molecule microarray, fluorescence 635/667 (AID 1087);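 further: score merges spot fluorescence at 667nm with spot signal to noise ratio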
- statedConditions: higher = more signal
# cutoff 0.1 applies to composite z-score; >= gives Yes, < gives No

Field: example entries. Status: answers known.
[
  {
    "compound": "C=C(C(=O)CC[C@H](OC(=O)c1cccnc1)c1ccc(OCCO)cc1)C(C)C",
    "className": "No"
  },
  {
    "compound": "CCOC(=O)C1=CC[C@@H](c2ccccc2)N(S(=O)(=O)c2ccc(C)cc2)[C@H]1C=C(C)C",
    "className": "No"
  }
]

Data request: Threshold query (composite z-score >= 0.1) on `CCCC=C(CCC)[C@@H](NS(=O)(=O)c1cccc2cccnc12)c1ccc(C(=O)OC)cc1`
Data returned: Yes

Data request: Threshold query (composite z-score >= 0.1) on C=CC[C@@]1(C(=O)NCC(O)CO)N=C(c2ccc(OCCCO)cc2)O[C@@H]1c1ccccc1 (some centres undefined)
Data returned: Yes

Data request: Threshold query (composite z-score >= 0.1) on COc1cc(C(O)C2C=CC3C(=O)N(C)C(=O)C3N2NC(=O)OC(C)(C)C)cc(OC)c1OC (centres undefined)
Data returned: Yes

---

- measurementProtocol: plasmodial surface anion channel blockers, osmotic lysis – cell-based, P. falciparum Indochina, OD700, 1 h, primary screen (AID 1154)
- statedConditions: P. falciparum Indochina infected RBC osmotic lysis, called active from +8 up or from −8 down
Active and inactive are the calls of the source.
A correct response names exactly one class from active, inactive

[
  {
    "lineNotation": "CCOC(=O)C[C@H]1[C@H](OC(=O)c2cc3ccccc3oc2=O)[C@@H](NC(=O)c2ccc3ccccc3n2)c2cc(OCCCO)ccc2N1C(=O)c1ccc2ccccc2n1",
    "className": "active"
  },
  {
    "lineNotation": "C=C[C@H](C)[C@H](OC(=O)Nc1ccc(SC)cc1)c1ccc(O)c2ccccc12",
    "className": "active"
  },
  {
    "lineNotation": "COCCOC(=O)N1C(=O)[C@@]2(c3cc(C#CCC(C(=O)OC)C(=O)OC)ccc31)[C@H](c1ccc(OCCO)cc1)N1[C@H](c3ccccc3)[C@H](c3ccccc3)OC(=O)[C@H]1[C@@H]2C(N)=O",
    "className": "inactive"
  },
  {
    "lineNotation": "CCOC(=O)C1=CC[C@@H](c2ccccc2)N(S(=O)(=O)c2ccc(C)cc2)[C@H]1C=C(C)C",
    "className": "inactive"
  }
]

Data request: // param item: `C[N+](C)(C)CCCC[C@@H]1NC(=O)[C@@H]2C[C@H](C(=O)O)[C@H](c3cccc(OCCO)c3)N2C1=O` ; yields the recorded call
Data returned: inactive

Data request: // param item: `NC(=O)NCC#Cc1ccc2c(c1)[C@]1(C(=O)N2)[C@H](c2ccc(OCCO)cc2)N2[C@H](c3ccccc3)[C@H](c3ccccc3)OC(=O)[C@H]2[C@@H]1C(=O)N1CCCCCCC1` ; yields the recorded call
Data returned: inactive

Data request: // param item: `[N-]=[N+]=NCc1ccccc1C[C@]1(C(=O)NCCN2CCOCC2)COC(c2ccc(OCCCO)cc2)=N1` ; yields the recorded call
Data returned: active
